assay: PAMPA (parallel artificial membrane permeability assay); assay type: in vitro ADME; details: PAMPA; membrane permeation rate (Pe); 50 mM MOPSO buffer pH 6.5 with 5.0% glycocholic acid, 37° C., 18 hours; read-out: iPAMPA Pe
Starred links: 1 amine or outer side, 2 acyl side, 3 side chain; linkers in the order of their positions; H or OH if unused. Positions of bridges follow the written chain, without caps; N, C: chain ends. Non-standard residues stand in square brackets, D forms with d. Residues, ends and D or L forms follow the SMILES beside them. *: point of attachment. Phe(4-(CH2)5CO) = O=C([C@H](Cc1ccc(CCCCCC(=O)[*:3])cc1)N[*:1])[*:2]; NMeF = CN[C@@H](Cc1ccccc1)C(=O)O; NMeI = CC[C@H](C)[C@H](NC)C(=O)O; NMeL = CN[C@@H](CC(C)C)C(=O)O; NMeV = CN[C@H](C(=O)O)C(C)C; NMeA = CN[C@@H](C)C(=O)O; Piperidide = C1CCN(*)CC1; Sar = CNCC(=O)O; tBu = CC(C)(C)*
In this section we review reported Papp at 18 hours, 50 µM values for a set of molecules.
Respond with the figure and its unit, in that order.

CC(C)C[C@H]1C(=O)N(C)[C@@H](Cc2ccccc2)C(=O)N[C@H](C(=O)N2CCCCC2)CC(=O)N(C)CC(=O)N[C@@H]([C@@H](C)O)C(=O)N(C)[C@@H](C)C(=O)N[C@@H](COC(C)(C)C)C(=O)N(C)[C@@H](Cc2ccccc2)C(=O)N1C [DP-521] ([Sar]T[NMeA]S(tBu)[NMeF][NMeL][NMeF]D-Piperidide; lactam N-8) :: 44 ×10⁻⁶ cm/s
CC[C@H](C)[C@H]1C(=O)N(C)[C@@H](CC(C)C)C(=O)N[C@@H](Cc2ccccc2)C(=O)N[C@@H]([C@@H](C)O)C(=O)N[C@@H](CC(C)C)C(=O)N(C)[C@@H](Cc2ccccc2)C(=O)N(C)[C@@H](C(C)C)C(=O)N[C@H](C(=O)N2CCC[C@H]2C(=O)N[C@H](C(=O)N[C@@H](C)C(=O)N2CCCCC2)C(C)C)CC(=O)N[C@H](C)C(=O)N[C@@H](C)C(=O)N1C [DP-671] ([dA]A[NMeI][NMeL]FTL[NMeF][NMeV]DPVA-Piperidide; lactam N-10) :: 16 ×10⁻⁶ cm/s

Now look at this entry.
Provide only the value of recorded Papp at 18 hours, 50 µM for CC[C@H](C)[C@H]1C(=O)N(C)[C@@H](C)C(=O)N[C@H](C(=O)N2CCCCC2)Cc2ccc(cc2)CCCCCC(=O)N[C@@H]([C@@H](C)O)C(=O)N(C)[C@@H](Cc2ccccc2)C(=O)N(C)[C@@H](CC(C)C)C(=O)N[C@@H](C(C)C)C(=O)N2CCC[C@H]2C(=O)N(C)[C@@H](Cc2ccccc2)C(=O)N[C@@H](CC(C)C)C(=O)N(C)CC(=O)N1C [DP-883] (T[NMeF][NMeL]VP[NMeF]L[Sar][NMeI][NMeA][Phe(4-(CH2)5CO)]-Piperidide; lactam N-11)
14 ×10⁻⁶ cm/s
